# test-description: Plasma pharmacokinetics of lenvatinib, carboplatin and paclitaxel
# Assay type: in vivo
# measurement-context: human, oral, 4 mg, tmax, lenvatinib in plasma, lenvatinib 4 mg BID (n=6) with carboplatin/paclitaxel, median (minimum–maximum)
value-type: Tmax
Please answer using the number first and the unit second.

# input Name the reported Tmax value associated with the compound "COc1cc2nccc(Oc3ccc(NC(=O)NC4CC4)c(Cl)c3)c2cc1C(N)=O"
# output 4.18 h

----------
# test-description: Plasma pharmacokinetics of lenvatinib, carboplatin and paclitaxel
# Assay type: in vivo
# measurement-context: human, oral, 6 mg
value-type: Cmax (ng/mL)
Expressed in ng/mL, but write only the number.

# input Name the reported Cmax value associated with the compound COc1cc2nccc(Oc3ccc(NC(=O)NC4CC4)c(Cl)c3)c2cc1C(N)=O [lenvatinib, Lenvatinib]
# output 138
